Listing of recorded pIC50 by entry.
Molecular target: KDM4C (Homo sapiens, UniProt Q9H3R0)
Construct: Full length of KDM5B and KDM4C protein were purchased from Active Motif; purchased Active Motif 31858
Sequence (Q9H3R0 whole entry): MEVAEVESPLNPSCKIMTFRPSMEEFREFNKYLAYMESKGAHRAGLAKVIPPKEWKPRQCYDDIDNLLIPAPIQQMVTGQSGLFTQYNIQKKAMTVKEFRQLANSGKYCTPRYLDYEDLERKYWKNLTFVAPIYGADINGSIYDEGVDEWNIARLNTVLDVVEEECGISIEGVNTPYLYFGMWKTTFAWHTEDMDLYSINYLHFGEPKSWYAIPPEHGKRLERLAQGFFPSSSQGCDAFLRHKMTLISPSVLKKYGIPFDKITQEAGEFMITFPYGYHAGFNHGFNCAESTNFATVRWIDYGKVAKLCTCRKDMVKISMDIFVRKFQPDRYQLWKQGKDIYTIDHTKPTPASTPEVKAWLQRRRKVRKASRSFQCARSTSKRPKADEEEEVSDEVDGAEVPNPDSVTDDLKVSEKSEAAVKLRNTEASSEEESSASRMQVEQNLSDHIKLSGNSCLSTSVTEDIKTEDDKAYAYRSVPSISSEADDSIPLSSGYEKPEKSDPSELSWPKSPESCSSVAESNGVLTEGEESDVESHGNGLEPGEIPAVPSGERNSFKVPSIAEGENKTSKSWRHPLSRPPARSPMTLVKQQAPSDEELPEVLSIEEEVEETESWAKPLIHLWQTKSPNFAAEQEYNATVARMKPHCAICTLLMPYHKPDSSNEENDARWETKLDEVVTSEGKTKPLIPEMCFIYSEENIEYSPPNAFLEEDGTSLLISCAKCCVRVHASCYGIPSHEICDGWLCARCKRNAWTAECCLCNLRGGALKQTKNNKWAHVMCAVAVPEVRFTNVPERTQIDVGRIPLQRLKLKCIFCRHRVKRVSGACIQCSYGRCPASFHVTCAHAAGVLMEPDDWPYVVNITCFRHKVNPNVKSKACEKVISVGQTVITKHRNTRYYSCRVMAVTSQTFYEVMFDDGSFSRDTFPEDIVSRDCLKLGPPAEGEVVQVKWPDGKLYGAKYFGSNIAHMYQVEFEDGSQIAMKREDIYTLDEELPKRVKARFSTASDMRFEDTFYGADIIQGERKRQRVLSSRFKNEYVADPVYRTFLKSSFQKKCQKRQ
Assay: KDM4C AlphaScreen assay
Type: biochemical
Settings: AlphaScreen; full length KDM4C 0.2 nM; biotinylated H3K9Me3 peptide 3 nM; 30 minutes at room temperature
The value called pIC50 is obtained by taking minus log10 of the concentration in mol/L.

[
  {
    "compound": "CC(C)c1c(O)nc(-c2cncs2)nc1OCc1cncnc1",
    "pIC50": 5.53
  },
  {
    "compound": "Cc1cn(-c2nc(O)c(C(C)C)c(OCc3cccnc3)n2)cn1",
    "pIC50": 5.06
  },
  {
    "compound": "CC(C)c1c(O)nc(-n2ccnc2)nc1-c1cnn(CC(=O)N2CCC(C#N)C2)c1 (stereo not drawn)",
    "pIC50": 6.06
  },
  {
    "compound": "CC(C)c1c(O)nc(-n2ccnc2)nc1-c1cnn(CC(C)(C)O)c1",
    "pIC50": 5.39
  },
  {
    "compound": "CC(C)c1c(O)nc(-n2ccnc2)nc1OCC1(N)CC1",
    "pIC50": 5.85
  }
]

[in] // pIC50 lookup, key: CC(=O)NCc1ccc(-c2nc(-n3ccnc3)nc(O)c2C(C)C)cc1
[out] 5.96

[in] CC(C)c1c(O)nc(-n2ccnc2)nc1OCCN1CCCC1=O , same question.
[out] 5.62

[in] CC(C)c1c(O)nc(-n2ccnc2)nc1-c1cnn(CC(=O)N2CCCC(N)C2)c1 (stereo not drawn) , same question.
[out] 6.30

[in] CC(C)c1c(O)nc(-n2ccnc2)nc1-c1cnn(CC(=O)N2CCN(C)CC2)c1 , same question.
[out] 6.34

---

Target: KDM5B (Homo sapiens)
Construct: Full length of KDM5B and KDM4C protein were purchased from Active Motif; purchased Active Motif 31832
Test: biochemical
Conditions: AlphaScreen; full length KDM5B 0.5 nM; biotinylated H3K4Me3 peptide 3 nM; 25 minutes at room temperature; read-out: KDM5B (IC50)
reported.metric: IC50 (nM)
The response must be a number in nM with no trailing unit.

Example entries and their recorded answers appear below.
[
  {
    "compound": "CC(C)Cc1ccc(-c2nc(-n3ccnc3)nc(O)c2C(C)C)cc1",
    "reported.metric": "IC50",
    "numeric.value": 1130
  },
  {
    "compound": "CC(C)c1c(O)nc(-n2ccnc2)nc1-c1cnn(CC(=O)NCCS(C)(=O)=O)c1",
    "reported.metric": "IC50",
    "numeric.value": 19
  },
  {
    "compound": "CC(C)c1c(O)nc(-c2cncs2)nc1OCc1ccncc1",
    "reported.metric": "IC50",
    "numeric.value": 140
  },
  {
    "compound": "CC(C)c1c(O)nc(-n2ccnc2-c2ccccn2)nc1-c1cccc(CNS(C)(=O)=O)c1",
    "reported.metric": "IC50",
    "numeric.value": 266
  },
  {
    "compound": "Cc1nc(-c2nccs2)nc(O)c1C(C)C",
    "reported.metric": "IC50",
    "numeric.value": 2410
  }
]

[in] // IC50 lookup, key: CC(C)c1c(O)nc(-n2ccnc2)nc1OCCN1CCN(C)CC1
[out] 7

[in] CC(=O)N1CCN(CCOc2nc(-n3ccnc3)nc(O)c2C(C)C)CC1 , same question.
[out] 14

[in] CC(C)c1c(O)nc(-n2ccnc2)nc1-c1ccc(S(=O)(=O)N(C)C)cc1 , same question.
[out] 17

[in] CC(C)c1c(O)nc(-n2ccnc2)nc1OCC1CN(C(=O)OCc2ccccc2)CCN1 (stereo not drawn) , same question.
[out] 18

---

Listing of recorded IC50 by entry.
Molecular target: KDM5B (Homo sapiens, UniProt Q9UGL1)
Construct: Full length of KDM5B and KDM4C protein were purchased from Active Motif; purchased Active Motif 31832
Sequence (Q9UGL1 whole entry): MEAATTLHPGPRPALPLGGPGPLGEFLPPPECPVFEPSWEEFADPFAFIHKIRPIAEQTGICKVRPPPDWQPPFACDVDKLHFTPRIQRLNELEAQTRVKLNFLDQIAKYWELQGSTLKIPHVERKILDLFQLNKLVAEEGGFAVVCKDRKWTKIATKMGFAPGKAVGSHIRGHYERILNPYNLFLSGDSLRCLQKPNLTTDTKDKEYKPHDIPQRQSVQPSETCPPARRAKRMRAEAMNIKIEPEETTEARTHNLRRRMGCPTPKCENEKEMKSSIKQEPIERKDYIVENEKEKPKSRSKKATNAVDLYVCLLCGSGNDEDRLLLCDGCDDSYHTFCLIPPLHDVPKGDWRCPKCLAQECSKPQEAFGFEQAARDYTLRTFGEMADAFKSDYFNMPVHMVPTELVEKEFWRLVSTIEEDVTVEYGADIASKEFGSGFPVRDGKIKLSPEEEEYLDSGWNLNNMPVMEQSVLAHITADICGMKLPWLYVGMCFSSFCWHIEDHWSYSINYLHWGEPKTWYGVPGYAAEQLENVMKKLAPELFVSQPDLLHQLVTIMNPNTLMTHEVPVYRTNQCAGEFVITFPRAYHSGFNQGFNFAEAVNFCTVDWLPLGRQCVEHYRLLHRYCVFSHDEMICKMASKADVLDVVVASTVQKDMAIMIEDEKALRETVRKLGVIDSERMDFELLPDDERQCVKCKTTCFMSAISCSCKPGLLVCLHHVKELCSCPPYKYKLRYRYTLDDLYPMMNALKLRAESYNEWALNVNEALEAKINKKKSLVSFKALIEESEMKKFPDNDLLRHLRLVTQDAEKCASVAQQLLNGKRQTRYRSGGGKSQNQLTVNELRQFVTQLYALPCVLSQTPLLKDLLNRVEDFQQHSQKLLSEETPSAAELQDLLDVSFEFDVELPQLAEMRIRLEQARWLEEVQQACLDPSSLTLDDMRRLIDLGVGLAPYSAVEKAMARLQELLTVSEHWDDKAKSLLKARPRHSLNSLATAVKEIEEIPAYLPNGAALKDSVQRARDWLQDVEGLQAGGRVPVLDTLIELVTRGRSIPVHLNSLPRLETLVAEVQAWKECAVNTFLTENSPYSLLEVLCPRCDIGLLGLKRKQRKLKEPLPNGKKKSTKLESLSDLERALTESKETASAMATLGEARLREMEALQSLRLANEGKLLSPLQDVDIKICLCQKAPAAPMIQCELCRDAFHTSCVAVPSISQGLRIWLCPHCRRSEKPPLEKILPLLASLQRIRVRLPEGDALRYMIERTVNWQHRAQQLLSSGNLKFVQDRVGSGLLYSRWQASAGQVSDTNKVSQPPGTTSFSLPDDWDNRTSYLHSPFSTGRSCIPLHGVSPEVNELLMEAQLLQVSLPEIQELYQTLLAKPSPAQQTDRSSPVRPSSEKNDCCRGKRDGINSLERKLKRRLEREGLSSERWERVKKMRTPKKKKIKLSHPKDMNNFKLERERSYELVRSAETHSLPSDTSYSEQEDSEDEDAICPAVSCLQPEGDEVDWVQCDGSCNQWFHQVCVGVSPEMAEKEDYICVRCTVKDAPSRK
Test: biochemical
The response must be a number in nM with no trailing unit.

[
  {
    "compound": "CC(C)c1c(O)nc(-n2ccnc2)nc1-c1cnn(CCO)c1",
    "reported.metric": "IC50",
    "numeric.value": 51
  },
  {
    "compound": "CC(C)c1c(O)nc(-n2ccnc2)nc1-c1cnn(CC(=O)NCCN(C)C)c1",
    "reported.metric": "IC50",
    "numeric.value": 5
  },
  {
    "compound": "CC(C)c1c(O)nc(-n2ccnc2)nc1-c1cnn(CC(=O)N2CCCC(N)C2)c1 (centres unmarked)",
    "reported.metric": "IC50",
    "numeric.value": 8
  }
]

[in] // IC50 lookup, key: CC(C)c1c(O)nc(-n2ccnc2)nc1-c1cnn(C2CC2)c1
[out] 11

[in] CC(C)c1c(O)nc(-n2ccnc2)nc1-c1cnn(CCC#N)c1 , same question.
[out] 10

---

Molecular target: KDM4C (Homo sapiens)
Construct: Full length of KDM5B and KDM4C protein were purchased from Active Motif; purchased Active Motif 31858
Experiment: KDM4C AlphaScreen assay
Format: biochemical
Details: AlphaScreen; full length KDM4C 0.2 nM; biotinylated H3K9Me3 peptide 3 nM; 30 minutes at room temperature
pIC50: −log10 of the molar value.
pIC50 below 6 gives n; pIC50 at or above it gives y.

[
  {
    "given.smiles": "CC(C)c1c(O)nc(-c2cncs2)nc1OCc1ccncc1",
    "target": "KDM4C (Homo sapiens)",
    "classification": "n"
  }
]

[in] Check if pIC50 >= 6 (inclusive). Item: CC(C)c1c(O)nc(-n2ccnc2)nc1-c1cccc(C#N)c1
[out] n

[in] Cc1nc(-n2ccnc2CO)nc(O)c1C(C)C , same question.
[out] y

---

Biological target: KDM5B (Homo sapiens)
Construct: Full length of KDM5B and KDM4C protein were purchased from Active Motif; purchased Active Motif 31832
Test: biochemical
Listing of recorded pIC50 by entry.
The value called pIC50 is obtained by taking minus log10 of the concentration in mol/L.

[
  {
    "compound": "CC(C)c1c(O)nc(-n2ccnc2)nc1-c1cnn(CC(=O)N2CCCC(C#N)C2)c1 (stereo not shown)",
    "target": "KDM5B (Homo sapiens)",
    "pIC50": 7.82
  },
  {
    "compound": "CC(C)c1c(O)nc(-n2ccnc2)nc1-c1ccccc1",
    "target": "KDM5B (Homo sapiens)",
    "pIC50": 7.05
  },
  {
    "compound": "Cc1nc(-c2scnc2C(=O)NCc2ccccc2)nc(O)c1C(C)C",
    "target": "KDM5B (Homo sapiens)",
    "pIC50": 5.95
  },
  {
    "compound": "CC(C)c1c(O)nc(-n2ccnc2)nc1-c1cnn(CC(N)=O)c1",
    "target": "KDM5B (Homo sapiens)",
    "pIC50": 7.96
  },
  {
    "compound": "CC(C)c1c(O)nc(-n2ccnc2)nc1-c1cnn(C2CCCC2)c1",
    "target": "KDM5B (Homo sapiens)",
    "pIC50": 7.72
  },
  {
    "compound": "CC(C)c1c(O)nc(-n2ccnc2)nc1-c1ccc(CN)cc1",
    "target": "KDM5B (Homo sapiens)",
    "pIC50": 8.40
  },
  {
    "compound": "CC(C)c1c(O)nc(-n2ccnc2)nc1-c1ccc(CO)cc1",
    "target": "KDM5B (Homo sapiens)",
    "pIC50": 7.80
  },
  {
    "compound": "CC(CN1CCOCC1)Oc1nc(-n2ccnc2)nc(O)c1C(C)C (stereo not shown)",
    "target": "KDM5B (Homo sapiens)",
    "pIC50": 7.19
  },
  {
    "compound": "CC(C)c1c(O)nc(-n2ccnc2)nc1-c1cnn(CC(=O)NCCN2CCC(O)CC2)c1",
    "target": "KDM5B (Homo sapiens)",
    "pIC50": 8.22
  },
  {
    "compound": "CC(C)c1c(O)nc(-n2ccnc2)nc1-c1ccc(C(=O)O)nc1",
    "target": "KDM5B (Homo sapiens)",
    "pIC50": 7.74
  }
]

[in] Given the entry Oc1nc(-c2cncs2)ncc1C(F)(F)F , what pIC50 was observed with KDM5B (Homo sapiens)?
[out] 5.60

[in] COc1nc(-n2ccnc2)nc(O)c1C(C)C , same question.
[out] 6.97

[in] CC(C)c1c(O)nc(-n2ccnc2)nc1-c1cnn(CC(=O)N2CCC(O)C2)c1 (stereo not shown) , same question.
[out] 7.68

[in] CC(C)c1c(O)nc(-c2cncs2)nc1-c1cnn(C2CCNCC2)c1 , same question.
[out] 5.67

[in] CC(C)c1c(O)nc(-c2cncs2)nc1OCC(C)(C)CO , same question.
[out] 5.83

[in] CC(C)c1c(O)nc(-n2ccnc2)nc1OCCC1CCOCC1 , same question.
[out] 7.57

[in] CC(C)c1c(O)nc(-n2ccnc2)nc1-c1cccc(C#N)c1 , same question.
[out] 7.40

[in] CC(C)c1c(O)nc(-n2ccnc2)nc1-c1cnn(CC(=O)NCCCCN(C)C)c1 , same question.
[out] 8.22

[in] Cc1nc(-c2c[nH]cn2)nc(O)c1C(C)C , same question.
[out] 5.71
